Hey, just so you know, these numbers are from patent US20100075926A1.

As shown below, each of these molecules has a reported HDAC6 % activation of deacetylase activity value.
Biological target: recombinant human HDAC6 (Homo sapiens, UniProt Q9UBN7)
Sequence (Q9UBN7 whole entry): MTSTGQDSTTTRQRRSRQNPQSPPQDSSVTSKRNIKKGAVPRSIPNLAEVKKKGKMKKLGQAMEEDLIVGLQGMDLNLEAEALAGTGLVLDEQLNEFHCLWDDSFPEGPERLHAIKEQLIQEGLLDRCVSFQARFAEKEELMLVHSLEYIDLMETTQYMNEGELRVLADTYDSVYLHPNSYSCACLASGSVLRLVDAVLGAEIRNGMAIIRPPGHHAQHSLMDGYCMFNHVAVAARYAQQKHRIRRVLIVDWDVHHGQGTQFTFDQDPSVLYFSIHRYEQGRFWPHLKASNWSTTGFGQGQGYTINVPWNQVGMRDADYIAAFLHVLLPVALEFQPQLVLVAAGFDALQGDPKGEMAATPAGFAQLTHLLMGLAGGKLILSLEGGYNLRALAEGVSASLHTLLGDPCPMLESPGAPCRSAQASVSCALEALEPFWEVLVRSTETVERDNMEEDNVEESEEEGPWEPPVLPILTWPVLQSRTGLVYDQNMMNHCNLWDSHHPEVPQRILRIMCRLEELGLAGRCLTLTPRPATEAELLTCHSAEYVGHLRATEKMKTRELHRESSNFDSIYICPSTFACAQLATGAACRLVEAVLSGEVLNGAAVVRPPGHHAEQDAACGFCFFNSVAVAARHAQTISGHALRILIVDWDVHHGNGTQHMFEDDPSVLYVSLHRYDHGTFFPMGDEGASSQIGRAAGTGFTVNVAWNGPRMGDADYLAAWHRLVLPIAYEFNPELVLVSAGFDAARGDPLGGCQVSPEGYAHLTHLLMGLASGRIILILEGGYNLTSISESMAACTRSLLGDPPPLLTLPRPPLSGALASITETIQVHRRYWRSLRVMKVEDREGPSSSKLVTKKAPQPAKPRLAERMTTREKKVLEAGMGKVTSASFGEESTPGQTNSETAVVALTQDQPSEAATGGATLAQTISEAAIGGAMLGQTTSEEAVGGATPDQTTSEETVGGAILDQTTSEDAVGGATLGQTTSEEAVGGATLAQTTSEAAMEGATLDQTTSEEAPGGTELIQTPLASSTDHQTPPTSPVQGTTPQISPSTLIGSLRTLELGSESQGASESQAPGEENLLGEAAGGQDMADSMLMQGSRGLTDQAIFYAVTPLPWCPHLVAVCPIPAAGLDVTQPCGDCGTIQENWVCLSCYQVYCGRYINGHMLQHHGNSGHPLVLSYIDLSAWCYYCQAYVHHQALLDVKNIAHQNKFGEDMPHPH
Assay: Caliper mobility shift deacetylase assay, HDAC6
Assay type: biochemical
Conditions: at the indicated concentration (8-40 μM); avg. n = 2; relative to DMSO
# value in %; strip the unit string

Use these answered entries as a reference point.
O=c1c(O)cc([C@H]2Oc3cc(O)cc(O)c3C[C@H]2O)cc2c([C@H]3Oc4cc(O)cc(O)c4C[C@H]3O)cc(O)c(O)c12; −79
CC(=O)N(O)CCCCCNC(=O)CCC(=O)N(O)CCCCCNC(=O)CCC(=O)N(O)CCCCCN; −5

# next molecule below
### Prompt Please look at this molecule and report its HDAC6 % activation of deacetylase activity: COC(=O)[C@H]1[C@H]2C[C@H]3c4[nH]c5ccccc5c4CCN3C[C@H]2CC[C@@H]1O
### Response −2

----------
Biological target: recombinant human HDAC1 (Homo sapiens, UniProt Q13547)
Construct: purchased BPS Biosciences
Sequence (Q13547 whole entry): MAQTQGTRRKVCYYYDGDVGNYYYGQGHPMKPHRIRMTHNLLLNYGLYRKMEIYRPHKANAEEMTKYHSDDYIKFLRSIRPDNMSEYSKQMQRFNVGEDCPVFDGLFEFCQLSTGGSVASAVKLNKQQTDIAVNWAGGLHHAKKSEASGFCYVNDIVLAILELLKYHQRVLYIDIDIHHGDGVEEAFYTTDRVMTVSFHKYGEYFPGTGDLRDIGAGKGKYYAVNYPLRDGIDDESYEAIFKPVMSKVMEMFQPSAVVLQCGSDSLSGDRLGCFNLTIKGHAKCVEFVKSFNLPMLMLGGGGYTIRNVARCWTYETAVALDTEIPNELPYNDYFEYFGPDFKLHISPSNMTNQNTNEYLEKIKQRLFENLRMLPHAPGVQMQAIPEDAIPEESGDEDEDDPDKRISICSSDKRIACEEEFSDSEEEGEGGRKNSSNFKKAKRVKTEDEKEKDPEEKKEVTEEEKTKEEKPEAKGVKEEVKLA
Experiment: 384-well fluorometric deacetylase assay (substrate MAZ1600), HDAC1
Assay type: biochemical
Details: rate of reaction (slope); DMSO control 37787
OBSERVED_PROPERTY: HDAC1 slope
Kindly provide the number alone.

Record excerpt, results attached:
CC1(C)S[C@@H]2[C@H](NC(=O)[C@H](N)c3ccccc3)C(=O)N2[C@H]1C(=O)O [Ampicillin trihydrate]; 40160
O=C(O)[C@@H]1C[C@H]2C[C@@H](CP(=O)(O)O)CC[C@H]2CN1 [LY 235959]; 40893
C[C@](N)(Cc1ccc(O)c(O)c1)C(=O)O [Methyldopa (L,-)]; 40553
CC(O)(P(=O)([O-])O)P(=O)([O-])O.[Na+].[Na+] [Etidronic acid, disodium salt]; 40241

### Prompt Provide one value: measured HDAC1 slope of O=C(O)[C@H]1C[C@@H](CP(=O)(O)O)CCN1 [CGS 19755]
### Response 41839

### Prompt For the compound CCN(CC)CCc1nc(-c2ccccc2)no1.O=C(O)CC(O)(CC(=O)O)C(=O)O [Oxalamine citrate salt] , give its measured HDAC1 slope value.
### Response 40700

### Prompt Output HDAC1 slope of C[C@H](N)[C@H](O)c1ccc(O)c(O)c1 [Levonordefrin]
### Response 40405

### Prompt Give HDAC1 slope for NCC(CC(=O)O)c1ccc(Cl)s1 (racemic)
### Response 40239

### Prompt Fill in reported HDAC1 slope for this entry: NC(C(=O)O)c1nnn[nH]1 (racemic)
### Response 40343

----------
Overview of recorded HDAC1 % activation of deacetylase activity for various compounds
Target: recombinant human HDAC1 (Homo sapiens)
Construct: purchased BPS Biosciences
Assay: Caliper mobility shift deacetylase assay, HDAC1
Type: biochemical
Details: at the indicated concentration (8-40 μM); avg. n = 2; relative to DMSO
Record the value in %, omitting the unit from your answer.

CC(C)=CCC[C@]1(C)C=Cc2c(O)c3c(c(CC=C(C)C)c2O1)O[C@]12C(=C[C@@H]4C[C@H]1C(C)(C)O[C@@]2(C/C=C(/C)C(=O)O)C4=O)C3=O; 22

### Prompt # lookup: recombinant human HDAC1 (Homo sapiens) HDAC1 % activation of deacetylase activity, key = CC(=O)N(O)CCCCCNC(=O)CCC(=O)N(O)CCCCCNC(=O)CCC(=O)N(O)CCCCCN
### Response 8

### Prompt Provide the reported HDAC1 % activation of deacetylase activity (system: recombinant human HDAC1 (Homo sapiens)) for COC(=O)[C@H]1[C@H]2C[C@H]3c4[nH]c5ccccc5c4CCN3C[C@H]2CC[C@@H]1O
### Response 5

### Prompt Report measured HDAC1 % activation of deacetylase activity on recombinant human HDAC1 (Homo sapiens); entry: O=c1c(O)cc([C@H]2Oc3cc(O)cc(O)c3C[C@H]2O)cc2c([C@H]3Oc4cc(O)cc(O)c4C[C@H]3O)cc(O)c(O)c12
### Response 5

### Prompt Write down the reported HDAC1 % activation of deacetylase activity (system: recombinant human HDAC1 (Homo sapiens)) of COc1ccc(-c2cc(=O)c3c(O)cc(O)c(-c4cc(-c5cc(=O)c6c(O)cc(OC)cc6o5)ccc4OC)c3o2)cc1
### Response 19

### Prompt For recombinant human HDAC1 (Homo sapiens), give HDAC1 % activation of deacetylase activity of the listed compound: CC1=NN(c2ccc(Br)cc2Br)C(=O)/C1=C(/C)NCc1ccccc1
### Response 5
